Recorded IC50 by entry
# Test system: bovine brain tubulin
# Test description: Inhibition of GTP-induced tubulin assembly (turbidimetry at 350 nm)
# Format: biochemical
# Measurement setup: after 20 min at 30° C., 10 μM bovine brain tubulin, 0.8 M monosodium glutamate
Counter-ions that a name gives are not always drawn.
Parameter measured: IC50 (nM)

compound="CCC(C)[C@H](NC(=O)CN(C)C)C(=O)N(C)[C@H](C[C@H](OC(C)=O)c1nc(C(=O)N[C@@H](Cc2ccccc2)C[C@H](C)C(=O)O)cs1)C(C)C (some centres unmarked) [WZY-III-64A]" units_of_measure=nM modifier=> value_observed=5000
compound="CCC(C)[C@H](NC(=O)CN(C)C)C(=O)N(C)[C@H](C[C@@H](OC(C)=O)c1nc(C(=O)N[C@@H](Cc2ccccc2)C[C@H](C)C(=O)O)cs1)C(C)C (some centres unmarked) [WZY-III-69A]" units_of_measure=nM modifier== value_observed=3100
compound="CC[C@H](C)[C@@H]([C@@H](CC(=O)N1CCC[C@H]1[C@H](OC)[C@@H](C)C(=O)N[C@@H](Cc1ccccc1)c1nccs1)OC)N(C)C(=O)[C@@H](NC(=O)[C@H](C(C)C)N(C)C)C(C)C [dolastatin 10, reference compound]" units_of_measure=nM modifier== value_observed=1400
compound="CC[C@]1(O)C[C@@H]2CN(CCc3c([nH]c4ccccc34)[C@@](C(=O)OC)(c3cc4c(cc3OC)N(C)[C@H]3[C@@](O)(C(=O)OC)[C@H](OC(C)=O)[C@]5(CC)C=CCN6CC[C@]43[C@@H]65)C2)C1 [vinblastine, reference compound]" units_of_measure=nM modifier== value_observed=1600
compound="CCC(C)[C@H](NC(=O)[C@H]1CCCCN1C)C(=O)N(C)[C@H](C[C@@H](OC(C)=O)c1nc(C(=O)N[C@@H](Cc2ccccc2)C[C@H](C)C(=O)O)cs1)C(C)C (some centres unmarked) [WZY-III-63C, trifluoroacetic acid salt]" units_of_measure=nM modifier== value_observed=2300
